Sourced from the supplement of paper PMC3334620

Below, each of the sequences is paired with its reported PBM E-score value.
SYSTEM TESTED: Ybr033w (UniProt P38073)
Sequence: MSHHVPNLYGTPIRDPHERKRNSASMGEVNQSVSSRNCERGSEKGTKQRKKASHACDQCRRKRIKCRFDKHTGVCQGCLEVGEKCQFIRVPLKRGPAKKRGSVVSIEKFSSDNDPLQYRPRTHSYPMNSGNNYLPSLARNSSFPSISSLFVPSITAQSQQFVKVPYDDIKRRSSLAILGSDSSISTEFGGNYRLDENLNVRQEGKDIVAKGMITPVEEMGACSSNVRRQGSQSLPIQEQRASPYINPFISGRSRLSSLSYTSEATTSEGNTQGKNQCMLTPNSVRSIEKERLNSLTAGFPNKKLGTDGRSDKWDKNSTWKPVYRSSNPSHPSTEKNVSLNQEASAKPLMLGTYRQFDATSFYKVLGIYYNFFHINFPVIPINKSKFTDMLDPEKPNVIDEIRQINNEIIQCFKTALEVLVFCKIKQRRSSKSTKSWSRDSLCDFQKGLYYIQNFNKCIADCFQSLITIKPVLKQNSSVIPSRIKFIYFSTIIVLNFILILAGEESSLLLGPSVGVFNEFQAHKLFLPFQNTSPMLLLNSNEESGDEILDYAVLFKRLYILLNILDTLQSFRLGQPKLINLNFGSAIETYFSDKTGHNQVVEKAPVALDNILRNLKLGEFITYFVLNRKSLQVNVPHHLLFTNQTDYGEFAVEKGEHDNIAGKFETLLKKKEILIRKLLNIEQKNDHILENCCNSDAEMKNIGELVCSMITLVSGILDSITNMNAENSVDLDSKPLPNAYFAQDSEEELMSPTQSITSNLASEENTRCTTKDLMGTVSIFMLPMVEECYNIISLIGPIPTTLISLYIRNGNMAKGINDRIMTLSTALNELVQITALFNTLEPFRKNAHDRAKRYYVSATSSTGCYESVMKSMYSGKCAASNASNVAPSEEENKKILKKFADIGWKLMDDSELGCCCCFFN
ASSAY METHOD TEXT: PBM E-score (8-mer binding enrichment) (E-score (-0.5 to 0.5)); higher = stronger / more preferred TF binding
ASSAY SETUP: protein concentration: 200 nM; construct: GST-full length
Whole data set: some 33,000 sequences, median “E-score (-0.5 to 0.5)” near -0.012, cut for the highest 2% near 0.29. The entries come from a sample that favours the highest values as a whole.
Please reply with the number alone, leaving off any unit.

Here are 6 sequences together with their reported answers.
[
  {
    "INPUT SEQUENCE": "AAATAACA",
    "REPORTED MEASUREMENT": 0.11
  },
  {
    "INPUT SEQUENCE": "TTTAAAAA",
    "REPORTED MEASUREMENT": 0.149
  },
  {
    "INPUT SEQUENCE": "AAAATCAT",
    "REPORTED MEASUREMENT": 0.31
  },
  {
    "INPUT SEQUENCE": "CTATTTAA",
    "REPORTED MEASUREMENT": 0.022
  },
  {
    "INPUT SEQUENCE": "ACACTGGG",
    "REPORTED MEASUREMENT": -0.161
  },
  {
    "INPUT SEQUENCE": "CTGTTGCC",
    "REPORTED MEASUREMENT": -0.136
  }
]

Exercise: For the sequence `ATATTTTA` , what PBM E-score is on record?
Solution: 0.3
